Source listed as BigSolDB 2.1.

Conditions: in ethanol, 318.15 K
Measurement name: solubility (mole fraction)

The value of solubility (mole fraction) measured for the compound CC(C)C(=O)Nc1ccc([N+](=O)[O-])c(C(F)(F)F)c1 turned out to be 0.136

###

Settings: in 1,4-dioxane, 288.15 K
Measurement name: solubility (mole fraction)
A bare number is all that is needed in reply.

Summary for this molecule, CC(C)C(=O)Nc1ccc([N+](=O)[O-])c(C(F)(F)F)c1 : solubility (mole fraction) is 0.139

###

Conditions: in ethanol, 303.15 K
Measurement name: solubility (mole fraction)
// keep it numeric: no unit symbol after the value

Just so you know, measured solubility (mole fraction) for CC(C)C(=O)Nc1ccc([N+](=O)[O-])c(C(F)(F)F)c1 came out at 0.0858
